Data origin: ChEMBL document CHEMBL1201862

REPORTED ENDPOINT: AC50

State the measured AC50 (Cytochrome P450 2C9 (Homo sapiens, UniProt P11712)) of CCC(C)[C@H](NC(=O)Nc1ccc(Oc2ccccc2)cc1)C(=O)O (stereo partly specified) 8.91 µM (inconclusive)

State the measured AC50 (Cytochrome P450 2C9 (Homo sapiens, UniProt P11712)) of COc1cccc(Nc2ncc3ncc(=O)n(Cc4cccs4)c3n2)c1 2.51 µM (inconclusive)

State the measured AC50 (Cytochrome P450 2C9 (Homo sapiens, UniProt P11712)) of Cc1ccccc1CN1CCN(CC(=O)NCCCN2CCN(c3ccc(F)cc3)CC2)C1=O 12.6 µM (inconclusive)

State the measured AC50 (Cytochrome P450 2C9 (Homo sapiens, UniProt P11712)) of CC(C)Oc1ccc2c(=O)c3cc(C(=O)O)ccc3oc2c1 31.6 µM (inconclusive)

State the measured AC50 (Cytochrome P450 2C9 (Homo sapiens, UniProt P11712)) of O=C1C(Cl)=C(Sc2nnc3c4ccccc4c4ccccc4c3n2)C(=O)c2ccccc21 3.98 µM (inconclusive)

State the measured AC50 (Cytochrome P450 2C9 (Homo sapiens, UniProt P11712)) of C[C@H](NC(=O)c1ccc(Cl)c(Cl)c1)c1ccc(-c2ccccc2)cc1 3.16 µM (inconclusive)

State the measured AC50 (Cytochrome P450 2C9 (Homo sapiens, UniProt P11712)) of O=C(O)CN1CCN(Cc2ccccc2)C1=O 11.2 µM (inconclusive)

State the measured AC50 (Cytochrome P450 2C9 (Homo sapiens, UniProt P11712)) of C=CCn1c(=O)c(C(=O)NCCN(CC)CC)c(O)c2ccccc21 8.91 µM (inconclusive)

State the measured AC50 (Cytochrome P450 2C9 (Homo sapiens, UniProt P11712)) of CS(=O)(=O)Nc1ccc(Nc2c3ccccc3nc3ccccc23)cc1 6.31 µM (inconclusive)

State the measured AC50 (Cytochrome P450 2C9 (Homo sapiens, UniProt P11712)) of Cc1ccc(S(=O)(=O)NCC2CCC(C(=O)O)CC2)cc1 (stereo unspecified) 0.1 µM (inconclusive)

State the measured AC50 (Cytochrome P450 2C9 (Homo sapiens, UniProt P11712)) of COc1ccc(-n2c(=O)c(-c3cccs3)nc3cnc(N4CCOCC4)nc32)cc1 20 µM (inconclusive)

---

biological target: UniProt P33261; assay: Cytochrome panel assay with activity outcomes. Panel member name: p450-cyp2c19 Compounds with AC50 equal or less than 10 uM are considered active; assay type: functional; details: read-out: AC50
Sequence (P33261 whole entry): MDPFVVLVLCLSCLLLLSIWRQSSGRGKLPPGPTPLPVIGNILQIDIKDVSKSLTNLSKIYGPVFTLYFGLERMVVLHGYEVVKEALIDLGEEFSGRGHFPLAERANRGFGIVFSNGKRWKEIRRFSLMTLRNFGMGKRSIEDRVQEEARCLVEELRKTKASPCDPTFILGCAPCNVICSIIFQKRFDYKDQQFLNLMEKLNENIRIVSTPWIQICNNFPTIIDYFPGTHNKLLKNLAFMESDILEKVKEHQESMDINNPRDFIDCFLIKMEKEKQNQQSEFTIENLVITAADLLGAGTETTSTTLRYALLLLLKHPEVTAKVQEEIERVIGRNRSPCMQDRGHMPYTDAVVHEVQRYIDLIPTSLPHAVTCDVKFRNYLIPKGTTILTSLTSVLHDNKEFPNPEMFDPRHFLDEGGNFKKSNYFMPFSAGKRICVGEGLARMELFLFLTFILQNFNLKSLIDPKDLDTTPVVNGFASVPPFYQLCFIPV
REPORTED ENDPOINT: AC50

Name the recorded AC50 of the item CS(=O)(=O)Nc1cccc(-c2nccc(-n3ccnc3)n2)c1 in your answer. 39.8 µM (inconclusive)

Name the recorded AC50 of the item COc1cccc(Nc2ncc3ncc(=O)n(Cc4cccs4)c3n2)c1 in your answer. 3.98 µM (inconclusive)

Name the recorded AC50 of the item CCOC(=O)Nc1ccc(S(=O)(=O)NCc2ccccc2)cc1 in your answer. 2.24 µM (inconclusive)

Name the recorded AC50 of the item CCc1nnc(NC(=O)C2CCN(C(=O)NC3CCCCC3)CC2)s1 in your answer. 0.158 µM (inconclusive)

Name the recorded AC50 of the item C=C(CC1([C@@H](NP(=O)(c2ccccc2)c2ccccc2)[C@H]2C[C@@H]2CCN(C(=O)OCC)S(=O)(=O)c2ccc(C)cc2)CC1)c1ccccc1 in your answer. 1.26 µM (inconclusive)

Name the recorded AC50 of the item Cc1ccccc1CN1CCN(CC(=O)NCCCN2CCN(c3ccc(F)cc3)CC2)C1=O in your answer. 11.2 µM (inconclusive)

Name the recorded AC50 of the item CCc1ccc(NC(=O)C2CCN(S(=O)(=O)c3c(C)nc(O)nc3O)CC2)cc1 in your answer. 11.2 µM (inconclusive)

Name the recorded AC50 of the item COC(=O)CCC(=O)Nc1cccc2ccccc12 in your answer. 20 µM (inconclusive)

Name the recorded AC50 of the item CCOC(=O)N/N=C/c1ccccc1F in your answer. 35.5 µM (inconclusive)

Name the recorded AC50 of the item COC(=O)c1sccc1NC(=O)c1cc(-c2ccc(C)cc2)nc2ccccc12 in your answer. 10 µM (inconclusive)

---

Molecular target: Heat shock factor protein 1 (Mus musculus, UniProt P38532)
Sequence (P38532 whole entry): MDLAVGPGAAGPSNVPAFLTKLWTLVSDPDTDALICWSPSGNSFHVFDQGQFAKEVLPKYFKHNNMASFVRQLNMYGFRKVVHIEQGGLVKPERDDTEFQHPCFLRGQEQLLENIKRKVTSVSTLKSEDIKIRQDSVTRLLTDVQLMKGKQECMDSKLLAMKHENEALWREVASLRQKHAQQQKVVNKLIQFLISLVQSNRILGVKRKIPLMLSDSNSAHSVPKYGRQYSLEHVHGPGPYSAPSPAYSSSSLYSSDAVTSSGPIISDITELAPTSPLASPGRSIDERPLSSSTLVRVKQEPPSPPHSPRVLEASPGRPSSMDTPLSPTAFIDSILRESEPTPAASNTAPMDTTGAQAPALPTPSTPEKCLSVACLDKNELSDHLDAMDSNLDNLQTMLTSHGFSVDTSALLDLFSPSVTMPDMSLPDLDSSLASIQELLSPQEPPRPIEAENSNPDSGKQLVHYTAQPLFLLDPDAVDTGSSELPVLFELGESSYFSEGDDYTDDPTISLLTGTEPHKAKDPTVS
Test: inhibition of MG132-induced HSE-luciferase signal, confirmation, cell-based, NIH3T3, luminescence, dose retest (AID 2382);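 note: NIH3T3 fibroblasts with HSF1-driven luciferase reporter stressed by proteasome inhibitor MG132; luminescence from HSF1-driven luciferase expression after 8 hours of MG132 stress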
Assay type: functional
Activity calls are given as the source filed them.
Give EC50 for every item shown.

Name the recorded EC50 of the item O=[N+]([O-])c1ccccc1Nc1cccnc1 in your answer. > 195 µM (not active)

Name the recorded EC50 of the item O=S(=O)(/N=C(/c1ccccc1Cl)N1CCOCC1)c1ccccc1 in your answer. > 195 µM (not active)

Name the recorded EC50 of the item O=C(CN1CCN(c2ccc(O)cc2)CC1)Nc1cc(S(=O)(=O)N2CCCC2)ccc1Cl in your answer. > 195 µM (not active)

Name the recorded EC50 of the item CCOC(=O)c1ccc2ncc(C(C)=O)c(O)c2c1 in your answer. > 195 µM (not active)

Name the recorded EC50 of the item O=C1N=C(N2CCCC2)S/C1=C\C=C\c1ccccc1 in your answer. < 0.16 µM (active)

Name the recorded EC50 of the item CCC(=O)Nc1cc(-c2nn(CC(=O)N3CCCCC3)c(=O)c3ccccc23)ccc1N1CCOCC1 in your answer. > 195 µM (not active)

Name the recorded EC50 of the item O=C(CNS(=O)(=O)c1ccccc1F)Nc1ccc(N2CCOCC2)cc1 in your answer. > 195 µM (not active)

Name the recorded EC50 of the item O=C1Cc2ccccc2C(=O)N1c1cccc(Cl)c1 in your answer. > 195 µM (not active)

Name the recorded EC50 of the item Cn1c(-c2sccc2OCc2cccc(C(F)(F)F)c2)n[nH]c1=S in your answer. > 195 µM (not active)

Name the recorded EC50 of the item NC(=S)N/N=C/c1cc([N+](=O)[O-])ccc1OCCOc1ccccc1 in your answer. 52.6 µM (active)

Name the recorded EC50 of the item NC(CC(=O)Nc1ccc(F)cc1)=NO in your answer. > 195 µM (not active)

Name the recorded EC50 of the item CC1(C)CC(=O)C(C(c2cccnc2)C2C(=O)CC(C)(C)CC2=O)C(=O)C1 in your answer. > 195 µM (not active)

Name the recorded EC50 of the item O=C(N/N=C/c1ccccc1Cl)c1[nH]nc2c1CCCC2 in your answer. 16 µM (active)

Name the recorded EC50 of the item Cn1nnc2cc(C(=O)NC(C)(C)C)ccc21 in your answer. 83.9 µM (active)

Name the recorded EC50 of the item CCCCC(=O)Nc1ccc(C(=O)NCCc2ccc(S(N)(=O)=O)cc2)cc1 in your answer. > 195 µM (not active)

Name the recorded EC50 of the item CCOC(=O)N/N=C\c1ccc(C)s1 in your answer. > 195 µM (not active)

---

target: Heat shock factor protein 1 (Mus musculus, UniProt P38532); test: HSF1 potentiators in luciferase reporter cells, confirmation, cell-based, NIH3T3, luminescence, dose retest (AID 435004); assay type: functional;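 note: stress induced by proteasome inhibitor MG132 added 30 min after compound; luciferase reporter driven by HSF1 response element in NIH3T3 cells; actives raise luminescence as potentiators of the MG132 stress response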
Calls of active or inactive are those of the source.
Log the outcome using a class from active, inactive

Could you kindly confirm the outcome this assay logged for CC(C)CC(/C(O)=C(\C#N)c1nc2ccccc2[nH]1)N1C(=O)c2ccccc2C1=O (stereo not drawn) ? inactive

Could you kindly confirm the outcome this assay logged for O=C(/C=C/c1ccccc1)c1cc(Br)ccc(=O)c1O ? active

Could you kindly confirm the outcome this assay logged for CCc1nc2c(sc3nc4c(cc32)COC(C)(C)C4)c(=O)n1Cc1ccco1 ? inactive

Could you kindly confirm the outcome this assay logged for O=c1c(Cl)cc(Cl)nn1-c1ccccc1 ? active

Could you kindly confirm the outcome this assay logged for Cc1cccc(-c2cccc(NC(=O)C3CCCN(C(=O)c4cccnc4)C3)c2)c1 (stereo not drawn) ? inactive

Could you kindly confirm the outcome this assay logged for COc1ccc(CCNC(=O)C2CCCN(Cc3nc(-c4ccccc4C)oc3C)C2)cc1OC (stereo not drawn) ? inactive

Could you kindly confirm the outcome this assay logged for CC(C)(C)N(NS(=O)(=O)c1ccc(F)cc1)c1ccccc1 ? inactive

Could you kindly confirm the outcome this assay logged for CCNc1ccc(S(=O)(=O)N(C)C)cc1NCC(=O)Nc1ccccc1Br ? inactive

Could you kindly confirm the outcome this assay logged for O=C1[C@@H]2Cc3c([nH]c4ccccc34)C(c3ccc([N+](=O)[O-])cc3)N2C(=O)CN1C1CC1 (stereo partly drawn) ? inactive

Could you kindly confirm the outcome this assay logged for CCOc1cc(/C=C2/SC(=S)N(CC3CCCO3)C2=O)ccc1O (stereo not drawn) ? inactive

Could you kindly confirm the outcome this assay logged for Fc1ccc(-c2nnc3ccc(N4CCc5ccccc5C4)nn23)cc1 ? inactive

Could you kindly confirm the outcome this assay logged for COc1ccccc1CNCC(c1ccccc1)c1ccccc1 ? inactive

Could you kindly confirm the outcome this assay logged for COc1ccc(-c2cc3ccc(OCC(C)=O)cc3oc2=O)cc1 ? inactive
